Data origin, for the record: ChEMBL document CHEMBL3870309

pIC50: −log10 of the molar value.
// each record: one item and its pIC50 for Epidermal growth factor receptor (Homo sapiens, UniProt P00533)
PROPERTY: pIC50

INSERT INTO results (molecule_smiles, target, property, experimental_value) VALUES
  ('Cc1cc(C)nc(NS(=O)(=O)c2ccc(Nc3nncc4ccccc34)cc2)n1', 'Epidermal growth factor receptor (Homo sapiens, UniProt P00533)', 'pIC50', 8.17),
  ('S=C(NNc1nncc2ccccc12)Nc1ccccc1', 'Epidermal growth factor receptor (Homo sapiens, UniProt P00533)', 'pIC50', 7.19),
  ('Clc1ccc(C(/C=C/c2ccccc2)=N\Nc2nncc3ccccc23)cc1', 'Epidermal growth factor receptor (Homo sapiens, UniProt P00533)', 'pIC50', 8.20);
